Biological target: T1, Rhesus macaque CD4-HIS (Acro Biosystems, Cat. CD4-C52H7) (rhesus macaque, UniProt P16003 26-390)
T1 construct: Bought reagent; also called Rhesus CD4; rhesus CD4-HIS; not shown: His tag
T1 sequence (P16003 26-390 limits assumed): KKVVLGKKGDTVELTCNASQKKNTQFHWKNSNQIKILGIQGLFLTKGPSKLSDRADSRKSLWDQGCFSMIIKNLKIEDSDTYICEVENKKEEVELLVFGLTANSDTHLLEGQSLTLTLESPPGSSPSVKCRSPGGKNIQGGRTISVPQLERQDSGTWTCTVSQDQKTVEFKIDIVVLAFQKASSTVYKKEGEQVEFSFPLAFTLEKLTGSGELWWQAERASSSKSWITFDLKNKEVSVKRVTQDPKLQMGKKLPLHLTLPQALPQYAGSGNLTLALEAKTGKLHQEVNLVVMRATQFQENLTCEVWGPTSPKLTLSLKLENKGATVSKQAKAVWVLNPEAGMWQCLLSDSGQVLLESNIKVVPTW
Assay: BLI Octet, mAb on anti-mouse Fc sensor, rhesus CD4-HIS 25-100 nM, 1:1 global fit;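 also: purified antibodies captured at 10 µg/mL, rhesus CD4 analyte run as a three-concentration serial dilution, irrelevant antibody as reference control, one kinetic constant set per antibody from global fitting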
Record form. Attribute: Kd. Fill in for each entry.
Numbers only, in nM.

See these solved cases before continuing.
[
  {
    "binder": "75110_04K10A (antibody, V domains shown, Tested as antibody purified from AlivaMab Mouse hybridoma supernatant (captured by anti-mouse IgG Fc)) VH: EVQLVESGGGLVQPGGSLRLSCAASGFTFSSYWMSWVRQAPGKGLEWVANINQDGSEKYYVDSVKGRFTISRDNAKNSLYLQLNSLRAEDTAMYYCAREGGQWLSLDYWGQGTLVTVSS VL: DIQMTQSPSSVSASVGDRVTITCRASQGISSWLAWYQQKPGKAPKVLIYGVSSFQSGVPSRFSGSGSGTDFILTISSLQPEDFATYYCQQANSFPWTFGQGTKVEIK",
    "Kd [nM]": 48
  },
  {
    "binder": "75110_01A06A (antibody, V domains shown, Tested as antibody purified from AlivaMab Mouse hybridoma supernatant (captured by anti-mouse IgG Fc)) VH: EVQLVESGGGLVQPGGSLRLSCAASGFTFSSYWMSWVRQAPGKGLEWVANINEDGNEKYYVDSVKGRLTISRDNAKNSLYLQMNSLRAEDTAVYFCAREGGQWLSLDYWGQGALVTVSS VL: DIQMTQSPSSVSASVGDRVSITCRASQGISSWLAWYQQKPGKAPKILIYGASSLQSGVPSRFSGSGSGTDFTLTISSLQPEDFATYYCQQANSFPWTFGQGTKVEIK",
    "Kd [nM]": 7.8
  },
  {
    "binder": "75110_02N15A (antibody, V domains shown, Tested as antibody purified from AlivaMab Mouse hybridoma supernatant (captured by anti-mouse IgG Fc)) VH: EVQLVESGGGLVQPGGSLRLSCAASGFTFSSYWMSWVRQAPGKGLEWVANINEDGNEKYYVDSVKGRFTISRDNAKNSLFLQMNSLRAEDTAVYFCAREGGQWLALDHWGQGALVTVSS VL: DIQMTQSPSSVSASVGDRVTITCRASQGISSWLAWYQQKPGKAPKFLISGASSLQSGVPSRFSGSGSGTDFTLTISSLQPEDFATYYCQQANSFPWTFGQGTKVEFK",
    "Kd [nM]": 14
  }
]

Items follow; give Kd for each.
1. 75110_03C01A (antibody, V domains shown, Tested as antibody purified from AlivaMab Mouse hybridoma supernatant (captured by anti-mouse IgG Fc)) VH: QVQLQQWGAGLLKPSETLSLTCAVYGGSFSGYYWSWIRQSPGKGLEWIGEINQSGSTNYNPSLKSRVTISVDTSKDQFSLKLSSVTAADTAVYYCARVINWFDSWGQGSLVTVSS VL: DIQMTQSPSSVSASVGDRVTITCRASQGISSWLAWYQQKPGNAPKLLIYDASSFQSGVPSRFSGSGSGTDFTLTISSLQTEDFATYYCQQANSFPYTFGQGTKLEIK
2. 75110_04P08A (antibody, V domains shown, Tested as antibody purified from AlivaMab Mouse hybridoma supernatant (captured by anti-mouse IgG Fc)) VH: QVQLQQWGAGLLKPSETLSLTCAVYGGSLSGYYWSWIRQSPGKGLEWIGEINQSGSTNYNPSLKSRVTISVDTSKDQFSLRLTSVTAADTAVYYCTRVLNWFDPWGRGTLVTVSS VL: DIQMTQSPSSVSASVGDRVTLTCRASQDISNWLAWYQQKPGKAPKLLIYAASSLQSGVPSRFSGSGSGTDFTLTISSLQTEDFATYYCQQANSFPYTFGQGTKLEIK
3. 75110_05B13A (antibody, V domains shown, Tested as antibody purified from AlivaMab Mouse hybridoma supernatant (captured by anti-mouse IgG Fc)) VH: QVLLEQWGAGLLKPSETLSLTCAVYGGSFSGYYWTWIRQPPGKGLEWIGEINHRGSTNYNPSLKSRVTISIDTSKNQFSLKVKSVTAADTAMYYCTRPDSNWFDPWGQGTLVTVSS VL: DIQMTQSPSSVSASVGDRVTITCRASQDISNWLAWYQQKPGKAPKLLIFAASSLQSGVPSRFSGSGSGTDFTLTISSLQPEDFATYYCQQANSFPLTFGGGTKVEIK
4. 75110_02E08A (antibody, V domains shown, Tested as antibody purified from AlivaMab Mouse hybridoma supernatant (captured by anti-mouse IgG Fc)) VH: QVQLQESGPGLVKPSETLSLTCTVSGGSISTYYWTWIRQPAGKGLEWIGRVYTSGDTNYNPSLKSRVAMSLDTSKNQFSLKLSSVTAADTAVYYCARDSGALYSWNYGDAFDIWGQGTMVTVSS VL: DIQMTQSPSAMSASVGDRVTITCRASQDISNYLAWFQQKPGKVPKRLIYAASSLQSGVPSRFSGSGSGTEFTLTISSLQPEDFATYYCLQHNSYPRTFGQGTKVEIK

9.8
60
4.7
12

Values compiled from patent US20220112288A1.
